target: Hck (UniProt P08631); test: phosphorylation enrichment, bacterial display (enrichment ratio); higher = better substrate or ligand; peptides without Tyr show the background;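 also: 11-residue human phosphosite peptides and single-mutation variants displayed on the E. coli surface, counted by deep sequencing, each peptide's frequency after selection divided by its frequency in the unselected input library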;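 also: frequency after pTyr selection over input frequency; kinase dosed for 20-30% of maximal phosphorylation in three min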
Sequence (P08631 whole entry, looked up): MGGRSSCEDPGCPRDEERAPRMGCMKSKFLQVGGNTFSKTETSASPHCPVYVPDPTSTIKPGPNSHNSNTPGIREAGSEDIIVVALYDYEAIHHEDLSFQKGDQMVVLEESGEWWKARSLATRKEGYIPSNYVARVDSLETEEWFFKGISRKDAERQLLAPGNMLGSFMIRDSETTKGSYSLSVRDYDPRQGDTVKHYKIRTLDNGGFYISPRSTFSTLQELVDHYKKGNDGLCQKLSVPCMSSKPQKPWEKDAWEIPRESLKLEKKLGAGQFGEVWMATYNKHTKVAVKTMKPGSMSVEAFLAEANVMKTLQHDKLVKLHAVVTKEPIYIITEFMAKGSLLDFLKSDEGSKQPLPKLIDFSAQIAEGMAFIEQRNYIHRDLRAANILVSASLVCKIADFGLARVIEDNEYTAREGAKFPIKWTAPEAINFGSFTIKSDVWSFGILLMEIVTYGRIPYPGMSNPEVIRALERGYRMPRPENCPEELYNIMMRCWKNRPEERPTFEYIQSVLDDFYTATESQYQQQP
Outcome: 1.0 for phosphorylation enrichment of at least 0.5; 0.0 for anything lower.

Completed entries (count: 5):
>  <Biosequence>
SQKRKYIEIDS [SDAD1_Y580]

>  <Class>
0.0

$$$$
>  <Biosequence>
RRGMPYGGCGD [TGM1_Y312_R315C]

>  <Class>
1.0

$$$$
>  <Biosequence>
DASENYFVMDS [TMEM240_Y77_T80M]

>  <Class>
0.0

$$$$
>  <Biosequence>
TTKGSYSLFVR [HCK_Y180_S183Y_YF]

>  <Class>
0.0

$$$$
>  <Biosequence>
IALSKYGRVKW [FGF6_Y186_R191W]

>  <Class>
0.0

$$$$

Below: the item to evaluate.
In: Quick check: does SVTCTYSPALS [TP53_Y126_N131S] have phosphorylation enrichment greater than or equal to 0.5?
Out: 1.0
